Experiment: Test 5: concentration of the test compounds in tumor
Assay type: in vivo
Conditions: mouse, po, 25 mg/kg, 25 mg/kg po, 6 hr, animal 2, read-out: Concentration in tumor, animal 2
quantity measured: concentration at 6 hr
Express the reported value numerically, then name its unit.

Data request: Bench note: what concentration at 6 hr did CN1CCN(C(=O)c2c(C(F)(F)F)oc3c2C(=O)c2ccccc2C3=O)CC1 show?
Data returned: 157 ng/mL

###

log10 of IC50 values by entry
Tested on: FaDu cell
Experiment: Test 2: inhibition of forming cancer cell sphere (Sphere IC50)
Assay type: cell-based
Conditions: Homo sapiens, 96 h, ultra-low attachment plate, serum-free sphere medium, 4 days, CellTiter-Glo
Where a name gives a salt, the structure may show the parent alone.
Field: value | Transform: log10 | Quantity: IC50 | Unit: nM

Some compounds with recorded log10 of IC50:
compound	log10 of IC50
CN1CCN(C(=O)c2c(C(F)(F)F)oc3c2C(=O)c2ccccc2C3=O)CC1	2.70
CC(=O)c1oc2c(c1C(=O)N1CCOCC1)C(=O)c1ccccc1C2=O	2.73
COC(=O)c1c(-c2cccnc2)oc2c1C(=O)c1ccccc1C2=O	3.76
CN(C)C(=O)c1c(C(F)(F)F)oc2c1C(=O)c1ccccc1C2=O	2.61

Data request: Bench note: what log10 of IC50 did CC(=O)c1oc2c(c1C(=O)N1CCN(C)CC1)C(=O)c1ccccc1C2=O [Example 5, hydrochloride] show?
Data returned: 2.82

Data request: Same question for CN(C)C(=O)c1c(-c2ccc(F)cc2)oc2c1C(=O)c1ccccc1C2=O please.
Data returned: 3.65

Data request: Same question for COC(=O)c1c(C(C)=O)oc2c1C(=O)c1ccccc1C2=O please.
Data returned: 2.77

Data request: Same question for COC(=O)c1c(C(C)(OC)OC)oc2c1C(=O)c1ccccc1C2=O please.
Data returned: 3.33

Data request: Same question for CC(=O)c1oc2c(c1C(=O)N(C)C)C(=O)c1ccccc1C2=O please.
Data returned: 2.85

Data request: Same question for COC(=O)c1c(C(F)(F)F)oc2c1C(=O)c1ccccc1C2=O please.
Data returned: 3.56

###

Test: Test 3: solubility test
Assay type: physicochemical
Settings: aqueous buffer, kinetic from dmso stock; pH 7.4 buffer, 1% DMSO, HPLC; read-out: Solubility pH 7.4
Procedure: Each 15 μL of each test sample (10 mM DMSO solution) was dispensed into 4 Utubes on a 96 well rack. Then, each sample was evaporated to dryness with a rotary evaporator. 3 μL of DMSO was added to each dried sample to be re-dissolved. […] The above test samples for the solubility test and the two kinds of the standard samples were analyzed with a HPLC. The solubility of each test sample was calculated as an area ratio per the standard solutions.
Where a name gives a salt, the structure may show the parent alone.
Tick label 1 if solubility is 40 µg/mL or greater. Tick label 0 if solubility is less than 40 µg/mL.

Example results:
compound	answer label
COC(=O)c1c(C(C)=O)oc2c1C(=O)c1ccccc1C2=O	label 0
CN(C)C(=O)c1c(-c2ccc(F)cc2)oc2c1C(=O)c1ccccc1C2=O	label 0
CC(=O)c1oc2c(c1C(=O)N(C)C)C(=O)c1ccccc1C2=O	label 1

Data request: Please tell me: is the compound CC(=O)c1oc2c(c1C(=O)N1CCOCC1)C(=O)c1ccccc1C2=O at or over 40 µg/mL in terms of solubility?
Data returned: label 1

Data request: Same question for CN(C)C(=O)c1c(C(F)(F)F)oc2c1C(=O)c1ccccc1C2=O please.
Data returned: label 0

Data request: Same question for CC(=O)c1oc2c(c1C(=O)N1CCN(C)CC1)C(=O)c1ccccc1C2=O [Example 5, hydrochloride] please.
Data returned: label 1

Data request: Same question for CN1CCN(C(=O)c2c(C(F)(F)F)oc3c2C(=O)c2ccccc2C3=O)CC1 please.
Data returned: label 1
